test system: Staphylococcus aureus 209P; test: Antibacterial activity, serial dilutions in liquid MH medium; type: cell-based; conditions: MH medium, 20 h, 37° C., 100% growth inhibition
REPORTED METRIC: MIC (µM)
Give bare numbers, in µM.

INSERT INTO results (molecule, readout_units, quantitative_readout) VALUES
  ('C=CC1=C(C)C2=Cc3c(C=C)c(C)c4[n]3[Fe]([Cl])[n]3c(c(C)c(CCC(=O)NCC(=O)OC)c3=CC3=NC(=C4)C(C)=C3CCC(=O)NCC(=O)OC)=CC1=N2 [XVII, reference compound]', 'µM', 50),
  ('C=CC1=C(C)c2cc3[n-]c(cc4[n-]c(cc5nc(cc1n2)C(C)=C5C=C)c(C)c4CCC(=O)N[C@@H](CO)C(=O)O)c(CCC(=O)N[C@@H](CO)C(=O)O)c3C.[Cl-].[Fe+3] [VI, 6,7-bis-(N^α-Seryl]-Protohemin (IX)]', 'µM', 50),
  ('C=CC1=C(C)C2=Cc3c(C=C)c(C)c4[n]3[Fe]([Cl])[n]3c(c(C)c(CCC(=O)N[C@@H](CCCNC(=N)N)C(=O)OC)c3=CC3=NC(=C4)C(C)=C3CCC(=O)N[C@@H](CCCNC(=N)N)C(=O)OC)=CC1=N2 [XV, reference compound]', 'µM', 50),
  ('C=CC1=C(C)C2=Cc3c(C=C)c(C)c4[n]3[Fe]([Cl])[n]3c(c(C)c(CCC(=O)N[C@@H](CCC(=O)N[C@@H](CCCNC(=N)N)C(=O)OC)C(=O)N[C@@H](CCCNC(=N)N)C(=O)OC)c3=CC3=NC(=C4)C(C)=C3CCC(=O)N[C@@H](CCC(=O)N[C@@H](CCCNC(=N)N)C(=O)OC)C(=O)N[C@@H](CCCNC(=N)N)C(=O)OC)=CC1=N2 [XVI, reference compound]', 'µM', 6.3);

# next molecule below
Record C=CC1=C(C)C2=Cc3c(C=C)c(C)c4[n]3[Fe]([Cl])[n]3c(c(C)c(CCC(=O)N[C@@H](CO)C(=O)OC)c3=CC3=NC(=C4)C(C)=C3CCC(=O)N[C@@H](CO)C(=O)OC)=CC1=N2 [XVIII, reference compound] . Reported MIC: 25

----------
tested on: Micrococcus luteus BKM Ac-2230; assay: Antibacterial activity, serial dilutions in liquid MH medium; type: cell-based; conditions: no colonies on agarized MH medium
REPORTED METRIC: MBC (µM)
One number for each entry, in µM.

Here are 2 compounds together with their reported answers.
INSERT INTO assay_data (compound, quantitative_readout) VALUES
  ('C=CC1=C(C)C2=Cc3c(C=C)c(C)c4[n]3[Fe]([Cl])[n]3c(c(C)c(CCC(=O)NCC(=O)OC)c3=CC3=NC(=C4)C(C)=C3CCC(=O)NCC(=O)OC)=CC1=N2 [XVII, reference compound]', 6.5),
  ('C=CC1=C(C)c2cc3[n-]c(cc4[n-]c(cc5nc(cc1n2)C(C)=C5C=C)c(C)c4CCC(=O)N[C@@H](CO)C(N)=O)c(CCC(=O)N[C@@H](CO)C(N)=O)c3C.[Cl-].[Fe+3]', 0.8);

# next compound below
Record `C=CC1=C(C)c2cc3[n-]c(cc4[n-]c(cc5nc(cc1n2)C(C)=C5C=C)c(C)c4CCC(=O)N[C@@H](CCCNC(=N)N)C(N)=O)c(CCC(=O)N[C@@H](CCCNC(=N)N)C(N)=O)c3C.[Cl-].[Fe+3]` . Reported MBC: 0.8
